Molecular target: human glucagon receptor (human) (UniProt P47871)
Sequence (P47871 26-477): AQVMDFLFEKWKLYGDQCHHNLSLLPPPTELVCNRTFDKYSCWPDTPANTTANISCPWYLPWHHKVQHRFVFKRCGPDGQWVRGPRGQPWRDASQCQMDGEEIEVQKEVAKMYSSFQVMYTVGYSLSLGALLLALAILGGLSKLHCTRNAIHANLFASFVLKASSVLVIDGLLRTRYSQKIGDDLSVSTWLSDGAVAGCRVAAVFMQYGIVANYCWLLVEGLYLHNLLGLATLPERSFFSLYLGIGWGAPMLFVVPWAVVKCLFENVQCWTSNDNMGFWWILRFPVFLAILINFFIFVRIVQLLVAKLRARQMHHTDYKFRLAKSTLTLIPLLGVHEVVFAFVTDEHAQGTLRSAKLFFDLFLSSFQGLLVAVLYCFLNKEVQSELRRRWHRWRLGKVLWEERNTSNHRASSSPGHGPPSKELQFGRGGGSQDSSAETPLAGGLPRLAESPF
Assay: cell-based or functional assay
Starred links: 1 amine or outer side, 2 acyl side, 3 side chain; linkers in the order of their positions; H or OH if unused. Non-standard residues stand in square brackets, D forms with d. Groups on a side chain read outwards from the residue. No end group written: not given here. *: point of attachment. C18 diacid = O=C(O)CCCCCCCCCCCCCCCCC(=O)*; αMePhe(2-F) = C[C@](N)(Cc1ccccc1F)C(=O)O; γGlu = O=C(O)[C@H](CCC(=O)[*:2])N[*:1]; αMeL = CC(C)C[C@](C)(N)C(=O)O; Dap = NC[C@H](N)C(=O)O; AEEA = NCCOCCOCC(=O)O; Aib = CC(C)(N)C(=O)O
Readout type: Relative cAMP EC50 (nM)
State the answer as a number, implicitly in nM.

Prompt: Param item = YXQGTXTSDYSKXLDKKAQXQFIEYLEEGGPSSGEPPPSEG (synthetic construct; SITE 2: note = 2-Aminoisobutyric Acid; SITE 6: note = alpha-methyl-2-fluoro-L-phenylalanine; SITE 13: note = alpha-methyl-leucine; SITE 17: note = Lysine is chemically modified through conjugation of the epsilon-amino group of the Lysine side chain with (2-[2-(2-Amino-ethoxy)-et)) [Example 292] ; retrieve measured Relative cAMP EC50.
Response: 1.84

Prompt: Param item = YXQGTXTSDXXIXLDXKAQXXFIEXLAEGGPSSGEPPPSGTGE (synthetic construct; SITE 2: note = 2-Aminoisobutyric Acid; SITE 6: note = alpha-methyl-2-fluoro-L-phenylalanine; SITE 10: note = 3-(4-Pyridyl)-L-alanine; SITE 11: note = alpha-methyl-L-serine; SITE 13: note = alpha-methyl-leucine; SITE 16: note = L-ornithine; SITE 17: note = Lysine is chemically mo) [Example 545] ; retrieve measured Relative cAMP EC50.
Response: 2.71

Prompt: Param item = Y[Aib]QGT[αMePhe(2-F)]TSDYSKILDKIAQKAFIEYLIEGGPSSGAPPPSEG-NH2 (not fully specified (residue 20)) [Example 355] ; retrieve measured Relative cAMP EC50.
Response: 5.87

Prompt: Param item = YXQGTFTSDFSXXLDKKAQXAFIEYLLEGGPSSGAPPPGGSG (synthetic construct; SITE 2: note = 2-Aminoisobutyric Acid; SITE 12: note = L-ornithine; SITE 13: note = alpha-methyl-leucine; SITE 17: note = Lysine is chemically modified through conjugation of the epsilon-amino group of the Lysine side chain with (2-[2-(2-Amino-ethoxy)-ethoxy]-acetyl)-(gamma-Glu)) [Example 64] ; retrieve measured Relative cAMP EC50.
Response: 4.94

Prompt: Param item = Y[Aib]QGTFTSDYS[Dap][αMeL]LDKK([AEEA-γGlu-C18 diacid])AQ[Aib]AFIEYLLEGGESSGAPPPSGS-NH2 [Example 360] ; retrieve measured Relative cAMP EC50.
Response: 5.28
